# Ki listing for each entry below
Molecular target: recombinant human IDO (Homo sapiens)
Assay: IDO inhibition kinetics (N-formylkynurenine formation, absorbance at 321 nm)
Assay type: biochemical
Conditions: 50 nM recombinant human IDO, 100 μM L-Tryptophan, pH 6.5; read-out: Ki
Experimental: The following reaction (Sono, M., Cady, S. G. Biochemistry 28, 5392-5399 (1989)) was used to measure the kinetics of inhibition of IDO using compounds of this invention as well as other compounds for comparison, as listed in Table 4. A solution of 0.1M potassium phosphate buffer (pH 6.5; optimal at 37° C.), 25 μM methylene blue, 200 μg/ml of catalase, 10 mM ascorbic acid, 50 nM of recombinant human IDO and 100 μM L-Tryptophan was prepared. […]
Hi! Could you send only the number? It should be in µM, unit omitted.

CCc1c(C)cc2c(c1O)C(=O)C1=C(C2=O)C(C)(C)OC1(OC)C(=O)OC (stereo not shown): 0.144

Item under review: CC12CCCc3coc(c31)C(=O)c1cc3c(cc12)C(=O)C1=C(NCCS1(=O)=O)C3=O (stereo not shown) . Reported Ki?
0.025

What value of Ki has been reported for the following compound? O=C1c2ccccc2C(=O)c2c1ccc(O)c2O [Alizarin, reference compound]
42

----------
molecular target: recombinant human IDO (Homo sapiens, UniProt P14902); assay: IDO inhibition kinetics (N-formylkynurenine formation, absorbance at 321 nm); assay type: biochemical
Sequence (P14902 whole entry): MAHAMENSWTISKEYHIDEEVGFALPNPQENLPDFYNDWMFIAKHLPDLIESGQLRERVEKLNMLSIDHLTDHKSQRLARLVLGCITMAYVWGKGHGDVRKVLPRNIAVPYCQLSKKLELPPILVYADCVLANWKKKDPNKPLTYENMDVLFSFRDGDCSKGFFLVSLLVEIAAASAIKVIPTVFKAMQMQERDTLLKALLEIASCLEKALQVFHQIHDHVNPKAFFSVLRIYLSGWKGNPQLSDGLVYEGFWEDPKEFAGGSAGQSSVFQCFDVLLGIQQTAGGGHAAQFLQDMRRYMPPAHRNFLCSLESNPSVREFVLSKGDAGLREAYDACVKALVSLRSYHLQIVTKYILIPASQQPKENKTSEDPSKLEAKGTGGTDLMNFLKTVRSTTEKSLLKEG
measurement-name: Ki (nM)
Reply numerically in nM, unit not repeated.

Need Ki, item O=C1C(Cl)=C(Cl)C(=O)c2ccccc21 [Dichlone, reference compound]
45

----------
biological target: purified, human IDO (Homo sapiens, UniProt P14902); assay: In vitro IDO activity assay (kynurenine adduct detected at 480 nm) used for bioassay guided fractionation; assay type: biochemical; conditions: extracts and compounds identified by bioassay guided fractionation
Sequence (P14902 whole entry): as above
measurement-name: IDO inhibition activity (qualitative)

The examples below pair each entry with its known result.
CCc1c(C)cc2cc3c(c(O)c2c1O)C(=O)C(C)(O)C(=O)C3(C)C (centres unmarked) [Garveatin F]: active IDO inhibitors
COc1c(C(C)=O)c(C)cc2cc3c(c(O)c12)C(=O)C(C)(C)C(=O)C3(C)C [Garveatin C]: active IDO inhibitors
CCc1c(C)cc2c(c1O)C(=O)C1=C(C2=O)C(C)(C)OC1(OC)C(=O)OC (centres unmarked) [Annulin C]: active IDO inhibitors
CC12CCCc3coc(c31)C(=O)c1cc3c(cc12)C(=O)C1=C(C3=O)S(=O)(=O)CCN1 (centres unmarked) [Adociaquinone A]: active IDO inhibitors
CCc1c(C)cc2c(c1O)C(=O)C1=C(C2=O)C(C)(C)OC1(O)C(=O)OC (centres unmarked) [Annulin A]: active IDO inhibitors

What measured IDO inhibition activity (qualitative) goes with CC(=O)c1c(C)cc2cc3c(c(O)c2c1O)C(=O)C(C)=C(O)C3(C)C [Garveatin A] ?
active IDO inhibitors

What value of IDO inhibition activity (qualitative) has been reported for the following compound? CCCc1c(C(=O)OC)c(OC)cc2cc3c(c(O)c12)C(=O)C(C)(O)C(=O)C3(C)C (centres unmarked) [2-Hydroxygarvin A]
active IDO inhibitors

----------
Property: pKi; scope: individual compounds
biological target: recombinant human IDO (Homo sapiens); test: IDO inhibition kinetics (N-formylkynurenine formation, absorbance at 321 nm); type: biochemical; settings: 50 nM recombinant human IDO, 100 μM L-Tryptophan, pH 6.5; read-out: Ki
Recall that pKi is obtained by taking minus log10 of the concentration measured in molar.

CCC1=C(C)C(=O)c2cc3c(c(O)c2C1=O)C(=O)C(C)=C(O)C3(C)C [Garveatin E]: 5.51
COC(=O)c1c(C)cc2cc3c(c(O)c2c1OC)C(=O)C(C)(CC(C)=O)C(=O)C3(C)C (stereo not drawn) [Garvalone C]: 5.90
CCc1c(C)cc2cc3c(c(O)c2c1O)C(=O)C(C)(O)C(=O)C3(C)C (stereo not drawn) [Garveatin F]: 5.85
CCc1c(C)cc2c(c1O)C(=O)C1=C(C2=O)C(C)(C)C(=O)C(C)(C(=O)OC)O1 (stereo not drawn) [Annulin B]: 6.91
CC12CCCc3coc(c31)C(=O)c1cc3c(cc12)C(=O)C1=C(C3=O)S(=O)(=O)CCN1 (stereo not drawn) [Adociaquinone A]: 7.07
COC1=CC(=O)c2ccccc2C1=O: 6.28
O=C1C=CC(=O)c2c(O)cccc21 [Juglone, reference compound]: 7.32

API: the following record is the query input.
What measured pKi is associated with O=c1ccc2ccccc2o1 [Coumarin, reference compound] on recombinant human IDO (Homo sapiens)?
2.95

// data source = patent US7799776B2
